Data credit: patent US6207399A

Biological target: factor Xa (Homo sapiens, UniProt P00742)
Construct: human factor Xa samples; gift of Dr. T. Lindhout (University of Limburg, Maastricht)
Sequence (P00742 41-179 limits assumed): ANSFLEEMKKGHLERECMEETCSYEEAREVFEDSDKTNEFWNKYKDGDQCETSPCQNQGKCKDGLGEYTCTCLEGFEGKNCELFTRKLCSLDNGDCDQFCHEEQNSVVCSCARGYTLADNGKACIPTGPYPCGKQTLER
Sequence (P00742 235-488 limits assumed): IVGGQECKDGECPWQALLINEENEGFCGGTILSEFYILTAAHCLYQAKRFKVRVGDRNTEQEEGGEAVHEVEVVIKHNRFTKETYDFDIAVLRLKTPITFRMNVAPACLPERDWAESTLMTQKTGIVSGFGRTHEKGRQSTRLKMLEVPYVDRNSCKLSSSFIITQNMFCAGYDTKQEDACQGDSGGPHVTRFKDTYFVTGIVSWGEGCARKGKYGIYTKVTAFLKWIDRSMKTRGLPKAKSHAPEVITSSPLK
Experiment: Kinetic parameters of hydrolysis of the substrates by factor Xa in buffer A at 37° C. (Example 4, Table 3)
Type: biochemical
Conditions: buffer A, 37° C., 50 nM factor Xa
Protocol: Kinetic parameters: The hydrolysis experiments were run in buffer A at 37° C. The liberation of p-nitroaniline was monitored at 405 nm in a dual wavelength (405-546 nm) spectrophotometer made in our workshop, using a personal computer for data recording. In a polystyrene microcuvette (total volume 500 μL), buffer A and substrate solution were added to obtain a final substrate concentration between 200 to 2000 μM. […]
Peptide text beside a SMILES is read from it. * marks the point of attachment. pNA = O=[N+]([O-])c1ccc(N*)cc1; Boc = CC(C)(C)OC(=O)*
measured.quantity: Factor Xa kcat (s⁻¹)
Just the number please, in s⁻¹, no unit attached.

| molecule | Factor Xa kcat [s⁻¹] |
| --- | --- |
| CC(C)[C@H](NC(=O)CN)C(=O)N[C@@H](CCCNC(=N)N)C(=O)Nc1ccc([N+](=O)[O-])cc1.Cl.Cl [2HCl.H-Gly-Val-Arg-pNA] (H-Gly-Val-Arg-pNA) | 2.84 |
| CC(C)[C@H](NC(=O)CNC(=O)CNC(=O)CNC(=O)[C@@H](N)CCC(=O)O)C(=O)N[C@@H](CCCNC(=N)N)C(=O)Nc1ccc([N+](=O)[O-])cc1 [2HCl.H-EGGGVR-pNA, 2HCl.H-Glu-Gly-Gly-Gly-Val-Arg-pNA] (H-EGGGVR-pNA) | 0.30 |
| CC(C)[C@H](NC(=O)OCCS(C)(=O)=O)C(=O)N[C@@H](CCCNC(=N)N)C(=O)Nc1ccc([N+](=O)[O-])cc1.Cl [Msc-Val-Arg-pNA.HCl] | 4.69 |

Param item: CC(C)[C@H](NC(=O)CNC(=O)CNC(=O)[C@@H](N)CCC(=O)O)C(=O)N[C@@H](CCCNC(=N)N)C(=O)Nc1ccc([N+](=O)[O-])cc1 [2HCl.H-Glu-Gly-Gly-Val-Arg-pNA] (H-EGGVR-pNA) ; param system: factor Xa (Homo sapiens, UniProt P00742); output Factor Xa kcat: 0.42

Param item: CC(C)[C@H](NC(=O)CNC(=O)CNC(=O)[C@@H]1CCCN1C(=O)[C@@H](N)CCC(=O)O)C(=O)N[C@@H](CCCNC(=N)N)C(=O)Nc1ccc([N+](=O)[O-])cc1 [2HCl.H-EPGGVR-pNA, 2HCl.H-Glu-Pro-Gly-Gly-Val-Arg-pNA] (H-EPGGVR-pNA) ; param system: factor Xa (Homo sapiens, UniProt P00742); output Factor Xa kcat: 0.45

Param item: CC(C)[C@H](NC(=O)CNC(=O)OC(C)(C)C)C(=O)N[C@@H](CCCNC(=N)N)C(=O)Nc1ccc([N+](=O)[O-])cc1.Cl [Boc-Gly-Val-Arg-pNA.HCl] (Boc-Gly-Val-Arg-pNA) ; param system: factor Xa (Homo sapiens, UniProt P00742); output Factor Xa kcat: 3.51
